Below: a set of entries, each annotated with reported TGI.
tested on: UACC-257 melanoma; assay: NCI tumour cell line growth inhibition, 48 h
Field: numeric (µM). Do not append units.

* Clc1ccc2c(c1)N(c1ncnc3ccc(-c4cnc5[nH]ccc5c4)cc13)CC2 | 63.2
* Clc1ccc2c(c1)N(CCCN1CCCC1)c1ccccc1S2 | 23.8
* CCN(CC)CCOc1ccccc1/C=C/c1noc2ccccc12 | 15.3

Report TGI for COc1cccc2c1OC(c1ccc(C#N)cc1)C([N+](=O)[O-])=C2 (stereo unspecified) tested on UACC-257 melanoma. 2.68

Form entry - test system: UACC-257 melanoma; read-out: TGI; compound: `COC(=O)/C=C(\C(=O)OC)c1c2c3c(cc(OC)c(OC)c3c3ccccc13)CCN2C` 89.7

Report TGI for CCC[C@H](NS(=O)c1ccc(C)cc1)C(C(=O)OCC)=C(c1ccccc1)c1ccccc1 (stereo partly specified) tested on UACC-257 melanoma. 33.5

----------
tested on: HT29 colon; test: NCI tumour cell line growth inhibition, 48 h
Reported GI50 values are given for each entry in this list.

Previously resolved entries follow.
• Cn1cc(C2=C(c3cn(C)c4c([N+](=O)[O-])cccc34)C(=O)NC2=O)c2ccccc21 = > 25 µM
• O=C(c1ccccc1)c1ccc(Oc2ccc([N+](=O)[O-])cc2[N+](=O)[O-])cc1 = 4.08 µM
• COc1cc(-c2nc3ccccc3s2)ccc1NC(=O)COc1ccc(Cl)cc1 = 3.66 µM
• COc1ccc(C(=O)COC(=O)[C@H](C[Se][Se]C[C@H](NC(=O)c2ccc(Br)cc2F)C(=O)OCC(=O)c2ccc(OC)cc2)NC(=O)c2ccc(Br)cc2F)cc1 = 0.879 µM
• Nc1nc2c(s1)CCc1c-2c(Br)n(Cc2ccccc2)c1Br = 10.9 µM
• CCCCCCCCN(CCCCCCCC)CCCCCCNc1cc(OC)cc2cccnc12 = 3.63 µM
• CCN1C(=O)N(CC)C2Nn3c(s/c(=C\c4ccccc4Br)c3=O)=NC21 (stereo not given) = 0.558 µM
• Clc1cccc(Cl)c1C1CSc2ccccc2N=C1c1ccccc1 (stereo not given) = 3.17 µM

Quick check: GI50 of `COC(=O)[C@]12CC[C@@H](C)[C@H](C)[C@@H]1C1=CC[C@@H]3[C@@]4(C)C(C=O)=C[C@@](C)(COC(C)=O)C4=CC[C@@]3(C)[C@]1(C)CC2` ? 3.17 µM

# input compound: `O=C1C(=O)c2c(nc3ccc(Br)cn23)-c2ccccc21` ; wanted: its GI50 2.44 µM

----------
system: SK-MEL-5 melanoma; test: NCI tumour cell line growth inhibition, 48 h
Below is a list of entries, each paired with its recorded GI50 value.

The examples below pair each entry with its known result.
* CN(C)c1ccc(N=C2C=CC(=[N+](C)C)C=C2)cc1 | 3.26 µM
* O=C1c2ccccc2S(=O)(=O)N1CSC(=S)N1CCCCC1 | 33.2 µM
* Nc1nc2c(s1)CCc1c-2c(Br)n(Cc2ccccc2)c1Br | 14.3 µM
* Clc1cccc(Cl)c1C1CSc2ccccc2N=C1c1ccccc1 (stereo unspecified) | 4.74 µM

Reported GI50, molecule `Cc1ccccc1-n1ncc(C(=O)c2ccccc2)c1N` : ____ > 25 µM

Could you share which GI50 value was measured for `Clc1ccc2c(c1)N(CCCN1CCCC1)c1ccccc1S2` ? 1.83 µM

----------
// TGI lookup, one value per entry
system: SR leukemia; test: NCI tumour cell line growth inhibition, 48 h
Express the result in µM but write the number alone.

- CCCCCCCCN(CCCCCCCC)CCCCCCNc1cc(OC)cc2cccnc12: 59.1
- Cc1ccc(C(SCC(N)C(=O)O)(c2ccc(C)cc2)c2ccc(C)cc2)cc1 (stereo not given): 6.91

Continue with the compound presented below.
Entry `COc1ccc(/C(O)=C/c2nc3cccnc3nc2/C=C(\O)c2ccc(OC)cc2)cc1` has what TGI? 51.2

----------
tested on: UACC-257 melanoma; assay: NCI tumour cell line growth inhibition, 48 h
Listing of entries alongside the reported TGI.

Worked cases, answers included:
- O=C(O)C[C@H]1CCCCC12CCOC2=O (stereo partly specified): > 100 µM
- CC(/C(=N\Nc1ccccc1)c1ccc(O)cc1)C1C(=O)Oc2ccccc21 (stereo unspecified): > 100 µM
- CCOC(=O)CSC(=O)NCCCl: > 100 µM
- O=c1ccn(C2OC(CO)C(O)C2[Se]c2ccccc2)c(=O)[nH]1 (stereo unspecified): 14.2 µM
- c1ccc(CNCCCCNCCCNCc2ccccc2)cc1: 32 µM

Fill blank: measured TGI of the compound O=C1CCC2CC(C(=O)c3ccccc3)CCC2CN1 (stereo unspecified) (tested in a mixture with another compound) is ____. > 100 µM

----------
As shown below, each of these compounds has a reported TGI value.
tested on: MDA-MB-231 breast; test: NCI tumour cell line growth inhibition, 48 h
Give just the number in µM; leave the unit off.

These solved cases illustrate the format of a correct answer.
- COc1cccc2c1OC(c1ccc(C#N)cc1)C([N+](=O)[O-])=C2 (stereo not given): 2.92
- NCCN1C(=O)CN=C(c2ccc(Cl)cc2)c2cc(Cl)ccc21: 30.5
- c1cc2[nH]ncc2cc1-c1nc2ccc3[nH]ncc3c2c2c1CCCC2: 11.6
- O=C(c1ccccc1)c1ccc(Oc2ccc([N+](=O)[O-])cc2[N+](=O)[O-])cc1: 49.9

Here is another compound to look at.
Which TGI is reported for this compound? `C[C@]12CC[C@H](O)C[C@H]1CC[C@@H]1[C@@H]2CC[C@]2(C)[C@@H](C3=CC(=O)OC3)[C@@H](O)C[C@]12O` 20.1

----------
system: SN12C renal; test: NCI tumour cell line growth inhibition, 48 h
MEASUREMENT_KIND: TGI

Recorded TGI, per entry:
* Cc1nc(N/N=C/c2ccccc2Cl)[nH]c(=O)c1CCO | > 100 µM
* O=C(O)c1cc(/C=C/c2cc(O)ccc2O)ccc1O | > 10 µM
* CCCCCCOc1ccc(C(=O)NO)cc1 | 19.5 µM
* O=C1c2ccccc2S(=O)(=O)N1CSC(=S)N1CCCCC1 | > 100 µM
* COC(=O)/C=C1/CCC(C)(C(=O)NS(=O)(=O)c2ccc(C)cc2)C1(C)C (stereo unspecified) | > 100 µM

What does the data say about its TGI? Entry: `Oc1ccc(N=C2CCC(=C(c3ccccc3)c3ccc(Nc4ccc(O)cc4)cc3)CC2)cc1` > 100 µM

What value of measured TGI is listed for CCOC(=O)C(C)NC(=O)C(C)NC(=O)C(C)NC(=O)C(C)NC(=O)C(C)NC(=O)OCc1ccccc1 (stereo unspecified) ? > 100 µM

Please give the measured TGI for this compound: COC(=O)C(C(=O)C(=O)Nc1nc(=S)[nH][nH]1)c1csc(-n2nc(-c3ccccc3)cc2-c2ccccc2)n1 (stereo unspecified) > 100 µM

Which TGI is listed for `Cc1ccccc1-n1ncc(C(=O)c2ccccc2)c1N` ? > 25 µM

Form field: reported TGI of `c1ccc(CNCCCCNCCCNCc2ccccc2)cc1` 36.4 µM

----------
TGI for assorted compounds
tested on: NCI-H226 lung; assay: NCI tumour cell line growth inhibition, 48 h

• O=C(N=Nc1cccc(Cl)c1)NNc1cccc(Cl)c1 = > 100 µM

Which value of TGI has been reported for `Clc1ccc2c(c1)N(c1ncnc3ccc(-c4cnc5[nH]ccc5c4)cc13)CC2` in the records? 22 µM

Recorded TGI for `COC(=O)[C@@H]1CN(C(C)=O)C(=O)N1C(=O)OCc1ccccc1` , please? > 100 µM

// returns reported TGI for input CC(NC(=O)c1ccccc1)NC(=O)C(C)C(=O)Nc1ccccc1 (stereo not given) > 100 µM

Need TGI, item `CCN(CC)CCNC(=O)c1cc2cc(NC(=O)c3cc4cc(NC(=O)c5cc6cc(N)ccc6[nH]5)ccc4[nH]3)ccc2[nH]1` > 100 µM

----------
test system: SNB-78 CNS; assay: NCI tumour cell line growth inhibition, 48 h
Attribute: TGI

Use the examples below as a reference point.
- CC[P+](C)(C)c1ccccc1: > 100 µM
- CO[C@@H]1C=C[C@@]23c4cc5c(cc4C(=O)O[C@H]2CN(C)[C@H]3C1)OCO5: > 100 µM
- Cc1ccc(NC(=O)C(=O)C(C#N)c2nc(-c3ccc(-c4ccccc4)cc3)cs2)c(C)c1 (configuration not stated): > 100 µM
- N#Cc1c2c(c(N=P(c3ccccc3)(c3ccccc3)c3ccccc3)n3c1nc1ccccc13)CCCC2: 97.3 µM
- COC1=CCC=C(C[C@@H]2NCCc3cc(OC)c(OC)cc32)C1: > 100 µM

Can you share its TGI? I mean this compound: OCC(O)C(O)C(O)c1nn(-c2ccc(Cl)cc2)c2nc3cc(Cl)c(Cl)cc3nc12 (configuration not stated) 76.9 µM

What TGI value was documented for this compound, COC(=O)/C(=N\Nc1nc(=S)[nH]n1N)C(C#N)c1ccccc1 (configuration not stated) ? > 100 µM

Endpoint output: TGI of Cc1cccc2c1N(C(=O)/C=C\C(=O)O)C(c1c(C)[nH]c3ccccc13)C2 (configuration not stated) . Value? > 100 µM

Dear colleague, I am looking for the recorded TGI of the following compound: CC(=O)c1ccc(OCC(O)CO)cc1 (configuration not stated) > 100 µM

What measured TGI goes with `COC(=O)/C=C(\C(=O)OC)c1c2c3c(cc(OC)c(OC)c3c3ccccc13)CCN2C` ? > 100 µM
